# System: Staphylococcus aureus
# Protocol summary: Antibacterial activity against Staphylococcus aureus ATCC 6538 at 400 ug/disc after 18 hrs by disc diffusion assay
# Type: functional
# Cond: ATCC 6538, 18 h, read-out: IZ
Measured parameter: zone of inhibition at 400 µg/disc (mm)

* CC[C@@]1([C@@H]2O[C@@H]([C@H]3O[C@@](O)(CO)[C@H](C)C[C@@H]3C)C[C@@H]2C)CC[C@H]([C@]2(C)CC[C@]3(C[C@H](O)[C@@H](C)[C@@H]([C@@H](C)[C@@H](OC)[C@H](C)C(=O)OCCN4CCOCC4)O3)O2)O1 | 23
* CC[C@@]1([C@@H]2O[C@@H]([C@H]3O[C@@](O)(CO)[C@H](C)C[C@@H]3C)C[C@@H]2C)CC[C@H]([C@]2(C)CC[C@]3(C[C@H](O)[C@@H](C)[C@@H]([C@@H](C)[C@@H](OC)[C@H](C)C(=O)O)O3)O2)O1 | 20
* C=CCOC(=O)[C@@H](C)[C@H](OC)[C@H](C)[C@H]1O[C@@]2(CC[C@@](C)([C@H]3CC[C@@](CC)([C@@H]4O[C@@H]([C@H]5O[C@@](O)(CO)[C@H](C)C[C@@H]5C)C[C@@H]4C)O3)O2)C[C@H](O)[C@H]1C | 13
* CC[C@@]1([C@@H]2O[C@@H]([C@H]3O[C@@](O)(CO)[C@H](C)C[C@@H]3C)C[C@@H]2C)CC[C@H]([C@]2(C)CC[C@]3(C[C@H](O)[C@@H](C)[C@@H]([C@@H](C)[C@@H](OC)[C@H](C)C(=O)OCCOCCOCCOC)O3)O2)O1 | 17

---

# Test system: Pseudomonas aeruginosa
# Protocol summary: Antibacterial activity against Pseudomonas aeruginosa ATCC 27853 at 400 ug/disc after 18 hrs by disc diffusion assay
# Type: functional, organism-based
Calls of active or inactive are those of the source. The calls are words filed in the database; no cut-off is given here.
Measured parameter: Activity

- CC[C@@]1([C@@H]2O[C@@H]([C@H]3O[C@@](O)(CO)[C@H](C)C[C@@H]3C)C[C@@H]2C)CC[C@H]([C@]2(C)CC[C@]3(C[C@H](O)[C@@H](C)[C@@H]([C@@H](C)[C@@H](OC)[C@H](C)C(=O)O)O3)O2)O1: inactive
- C=CCOC(=O)[C@@H](C)[C@H](OC)[C@H](C)[C@H]1O[C@@]2(CC[C@@](C)([C@H]3CC[C@@](CC)([C@@H]4O[C@@H]([C@H]5O[C@@](O)(CO)[C@H](C)C[C@@H]5C)C[C@@H]4C)O3)O2)C[C@H](O)[C@H]1C: inactive
- CC[C@@]1([C@@H]2O[C@@H]([C@H]3O[C@@](O)(CO)[C@H](C)C[C@@H]3C)C[C@@H]2C)CC[C@H]([C@]2(C)CC[C@]3(C[C@H](O)[C@@H](C)[C@@H]([C@@H](C)[C@@H](OC)[C@H](C)C(=O)OCCN4CCOCC4)O3)O2)O1: inactive
- CC[C@@]1([C@@H]2O[C@@H]([C@H]3O[C@@](O)(CO)[C@H](C)C[C@@H]3C)C[C@@H]2C)CC[C@H]([C@]2(C)CC[C@]3(C[C@H](O)[C@@H](C)[C@@H]([C@@H](C)[C@@H](OC)[C@H](C)C(=O)OCCOCCOCCOC)O3)O2)O1: inactive

---

# System: Bacillus subtilis
# Protocol summary: Antibacterial activity against Bacillus subtilis ATCC 6633 after 18 hrs by serial agar dilution method
# Type: functional
# Cond: ATCC 6633, 18 h
Known MIC of a selection of compounds
Measured parameter: MIC (µg/mL)

* C=CCOC(=O)[C@@H](C)[C@H](OC)[C@H](C)[C@H]1O[C@@]2(CC[C@@](C)([C@H]3CC[C@@](CC)([C@@H]4O[C@@H]([C@H]5O[C@@](O)(CO)[C@H](C)C[C@@H]5C)C[C@@H]4C)O3)O2)C[C@H](O)[C@H]1C | 12.5
* CC[C@@]1([C@@H]2O[C@@H]([C@H]3O[C@@](O)(CO)[C@H](C)C[C@@H]3C)C[C@@H]2C)CC[C@H]([C@]2(C)CC[C@]3(C[C@H](O)[C@@H](C)[C@@H]([C@@H](C)[C@@H](OC)[C@H](C)C(=O)O)O3)O2)O1 [MONENSIN] | 1
* CC[C@@]1([C@@H]2O[C@@H]([C@H]3O[C@@](O)(CO)[C@H](C)C[C@@H]3C)C[C@@H]2C)CC[C@H]([C@]2(C)CC[C@]3(C[C@H](O)[C@@H](C)[C@@H]([C@@H](C)[C@@H](OC)[C@H](C)C(=O)OCCN4CCOCC4)O3)O2)O1 | 6.25
* CC[C@@]1([C@@H]2O[C@@H]([C@H]3O[C@@](O)(CO)[C@H](C)C[C@@H]3C)C[C@@H]2C)CC[C@H]([C@]2(C)CC[C@]3(C[C@H](O)[C@@H](C)[C@@H]([C@@H](C)[C@@H](OC)[C@H](C)C(=O)OCCOCCOCCOC)O3)O2)O1 | 25

---

# Test system: Staphylococcus epidermidis
# Protocol summary: Antibacterial activity against Staphylococcus epidermidis ATCC 12228 after 18 hrs by serial agar dilution method
# Type: functional
# Cond: ATCC 12228, 18 h
Known MIC of a selection of compounds
Measured parameter: MIC (µg/mL)

* CC[C@@]1([C@@H]2O[C@@H]([C@H]3O[C@@](O)(CO)[C@H](C)C[C@@H]3C)C[C@@H]2C)CC[C@H]([C@]2(C)CC[C@]3(C[C@H](O)[C@@H](C)[C@@H]([C@@H](C)[C@@H](OC)[C@H](C)C(=O)O)O3)O2)O1 | 2
* C=CCOC(=O)[C@@H](C)[C@H](OC)[C@H](C)[C@H]1O[C@@]2(CC[C@@](C)([C@H]3CC[C@@](CC)([C@@H]4O[C@@H]([C@H]5O[C@@](O)(CO)[C@H](C)C[C@@H]5C)C[C@@H]4C)O3)O2)C[C@H](O)[C@H]1C | 100
* CC[C@@]1([C@@H]2O[C@@H]([C@H]3O[C@@](O)(CO)[C@H](C)C[C@@H]3C)C[C@@H]2C)CC[C@H]([C@]2(C)CC[C@]3(C[C@H](O)[C@@H](C)[C@@H]([C@@H](C)[C@@H](OC)[C@H](C)C(=O)OCCOCCOCCOC)O3)O2)O1 | 100
* CC[C@@]1([C@@H]2O[C@@H]([C@H]3O[C@@](O)(CO)[C@H](C)C[C@@H]3C)C[C@@H]2C)CC[C@H]([C@]2(C)CC[C@]3(C[C@H](O)[C@@H](C)[C@@H]([C@@H](C)[C@@H](OC)[C@H](C)C(=O)OCCN4CCOCC4)O3)O2)O1 | 12.5
